Biological target: PfCSP full length (Plasmodium falciparum (isolate NF54), UniProt P19597)
Sequence (P19597 20-375): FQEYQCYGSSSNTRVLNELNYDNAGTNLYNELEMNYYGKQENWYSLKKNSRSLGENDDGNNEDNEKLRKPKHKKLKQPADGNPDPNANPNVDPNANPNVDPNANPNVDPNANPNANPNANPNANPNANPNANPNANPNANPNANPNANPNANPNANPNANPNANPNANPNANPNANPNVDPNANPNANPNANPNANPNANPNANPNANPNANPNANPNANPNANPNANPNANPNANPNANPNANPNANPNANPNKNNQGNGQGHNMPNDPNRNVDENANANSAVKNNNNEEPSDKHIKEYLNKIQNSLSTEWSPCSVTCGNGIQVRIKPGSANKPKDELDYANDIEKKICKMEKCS
Experiment: ELISA AUC
# binding score per entry

BINDER	binding score
CL-510020 (antibody, V domains shown, peptides N-terminally acetylated and C-terminally amidated) VH: QVQLVESGGGVVQPGRSLRLSCAASGFTFSSFGMYWVRQAPGKGLEWVALIWYDGSNQYYADSVKGRFTISRDNSKNTLYLQMNSLRAEDTAVYYCARAGYFYGSGSPLDYWGQGTLVTVPS VL: DIQMTQSPSTLSASVGDGVTITCRASQSISSWLAWYQQKPGKAPKLLIYMASSLESGVPSRFSGSGSGTEFTLTISSLQPDDFATYYCQQYYNYWTFGQGTKVEIK	2.45
CL-531286 (antibody, V domains shown, peptides N-terminally acetylated and C-terminally amidated) VH: QVQLVESGGGLVQPGRSLRLSCAASGFTFSSSGMHWVRQAPGKGLEWVAVIWYDGSNKFYADSVKGRFTISRDNSKNTLYLQMNSLRAEDTAVYYCARSGYDILTGYFNFFDPWGQGTLVTVSS VL: EIVLTQSPGTLSLSPGERATLSCRASQSVSSSHLAWYQQKPGQAPRLLIYGASSRATGIPDRFSGSGSGTDFTLTISRLEPEDFAVYYCHQYVSSFTFGPGTKVDFK	2.29
CL-437492 (antibody, V domains shown, peptides N-terminally acetylated and C-terminally amidated) VH: QEQLVESGGGVVQPGNSLRLSCVASGFTFSNHGMHWVRQAPGKGLEWVAIIWYDGSQKFYSDSVKGRFTISRDNSKNTLYLQMNSLRAEDTAIYYCARVDWSGNDWGWFDPWGQGTLVTVSS VL: EIVLTQSPDTLSLSPGERATLSCRASQTLSSRHLAWYQQKPGQAPRLLIYGASSRATGIPDRFSGSGSGTDFTLTINRLEPEDFAVFYCQQYGRLWTFGQGTKVEIK	2.2
Ky15.5 (antibody, V domains shown, peptides N-terminally acetylated and C-terminally amidated) VH: QVQMVASGGGVVQPGRSLRLSCAVSGFTFRNFGMHWVRQDPGRGLEWVAIIWYDGSYEFYADSVKGRFTISRDNSKNTLYLQMNSLRAEDTAVYYCARSYGSLTGDETKYGMDVWGQGTTVTVSS VL: DIQMTQSPSTLSASVGDRVTITCRASQSISSWLAWFQQKPGKAPKLLIYKASSLESGVPSRFSGSGSGTEFTLTISSLQPDDFATYYCQQYKNYWTFGQGTKVEIK	2.4
CL-508758 (antibody, V domains shown, peptides N-terminally acetylated and C-terminally amidated) VH: QVQLVESGGGVVQPGRSLRLSCAASGFTFSNYGMHWVRQTPGRDLEWVAIIWYDGSYKFYADSVKGRFSISRDNSKNTLNLEMKSLRVEDTAVYYCAKAYDTSSDDKYGMDVWGQGTTVTVTS VL: DIQMTQSPSTLSASVGDRVTITCRASQSISIWLAWYQQKPGKAPKLLIYRASDLESGVPSRFSGSGSGTGFTLTISSLQPDDFATYYCQQYNSYWTFGQGTKVEIK	2.17
